# Tested on: MRSA (IHMA #510059)
# test_method_notes: MIC, broth microdilution (susceptibility method), MRSA
# Format: cell-based
# details: Staphylococcus aureus, broth microdilution, MH broth, read-out: MIC MRSA (IHMA #510059)
Known MIC of a selection of compounds
Express your answer in µg/mL, writing the number without its unit.

Known results for compounds:
{"compound": "CCc1cc(O)c(Oc2ccc(C(=O)N3CCN(C)C(=O)C3)cc2F)cc1F", "unit_descriptor": "µg/mL", "val": 1}
{"compound": "CCc1cc(O)c(Oc2ccc(C(=O)N3CC(=O)NC(=O)C3)cc2F)cc1F", "unit_descriptor": "µg/mL", "val": 32}
{"compound": "CCc1cc(O)c(Oc2ccc(C(=O)N3CCN(CC(N)=O)C(=O)C3)cc2F)cc1F", "unit_descriptor": "µg/mL", "val": 4}

Find the recorded MIC belonging to CCc1cc(O)c(Oc2ccc(C(=O)N3CCNC(=O)C3C)cc2F)cc1F (stereo not shown) and report it.
1
